SYSTEM UNDER TEST: TEAD1 protein (YAP Binding Domain) (Homo sapiens)
Sequence (P28347 167-426 limits assumed): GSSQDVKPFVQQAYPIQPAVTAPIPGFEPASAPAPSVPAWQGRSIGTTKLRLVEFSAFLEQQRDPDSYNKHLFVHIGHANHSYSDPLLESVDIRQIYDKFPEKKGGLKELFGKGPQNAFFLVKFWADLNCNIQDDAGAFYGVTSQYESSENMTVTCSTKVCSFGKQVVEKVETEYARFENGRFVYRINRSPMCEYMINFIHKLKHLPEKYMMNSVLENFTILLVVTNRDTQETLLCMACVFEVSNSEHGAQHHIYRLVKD
PROCEDURE SUMMARY: biochemical
pIC50: −log10 of the molar value.
MEASUREMENT LABEL: pIC50

MOLECULE | MEASUREMENT LABEL | VALUE
COc1ccc2c(N3CCC(C(F)(F)F)CC3)nc(C(=O)N[C@H](C)CO)cc2c1 [Compound 67] | pIC50 | < 6.30
CC[C@H](CO)NC(=O)c1ccc2c(N3CCC(C(F)(F)F)CC3)nc(OC)cc2c1 [Compound I-65] | pIC50 | > 6.82
COc1cc(N2CCC(C(C)(C)C)CC2)c2ncc(C(=O)N[C@H](C)CO)cc2c1 [Compound I-2] | pIC50 | 6.30 to 6.52
COC[C@H](C)NC(=O)c1ccc2c(N3CCC(C(F)(F)F)CC3)nc(OC)cc2c1 [Compound I-50] | pIC50 | > 6.82
COc1cc(N2CCC(C(F)(F)F)CC2)c2ncc(C(=O)NC(C)(C)CO)cc2c1 [Compound I-10] | pIC50 | 6.30 to 6.52
COC[C@H](C)NC(=O)c1ccc2c(-c3ccc(C(F)(F)F)cc3)nc(OC)cc2c1 [I″-54] | pIC50 | > 6.82
COc1cccc([C@H](C)NC(=O)c2cnc3c(N4CCC(C(F)(F)F)CC4)cc(OC)cc3c2)c1 [Compound I-39] | pIC50 | < 6.30
COc1cc(-c2ccc(OCC(F)(F)F)cc2)c2ncc(C(=O)N[C@H](C)CO)cc2c1 [Compound I-18] | pIC50 | 6.52 to 6.82

---

// reported pIC50 per item
SYSTEM UNDER TEST: TEAD1 protein (YAP Binding Domain) (Homo sapiens)
PROCEDURE SUMMARY: biochemical
pIC50: −log10 of the molar value.

COMPOUND | pIC50
COc1ccc2c(N3CCC(C(F)(F)F)CC3)nc(C(=O)O)cc2c1 | < 6.30
CC(CO)NC(=O)c1cnc2c(OCC3CCC(F)(F)CC3)cccc2c1 (centres unmarked) | < 6.30
COC[C@H](C)NC(=O)c1cnc2c(N3CCC(C(F)(F)F)CC3)cc(OC)cc2c1 | 6.52 to 6.82
COC[C@H](C)NC(=O)c1cnc2c(N3CCC(C(F)(F)F)CC3)cc(OC(F)F)cc2c1 | 6.52 to 6.82
COC[C@H](C)NC(=O)c1cnc2c(N3CCC(C(F)(F)F)CC3)cc(OC(F)(F)F)cc2c1 | 6.30 to 6.52
O=C(O)c1ccc2c(N3CCC(C(F)(F)F)CC3)cccc2c1 | 6.52 to 6.82
COc1cc(N2CCC(C(F)(F)F)CC2)c2ncc(C(=O)N[C@@H](C)COC(F)(F)F)cc2c1 | < 6.30
COc1cc(N2CCC3(CCCC3)CC2)c2ncc(C(=O)N[C@H](C)CO)cc2c1 | 6.52 to 6.82

---

SYSTEM UNDER TEST: TEAD1 protein (YAP Binding Domain) (Homo sapiens)
PROCEDURE SUMMARY: biochemical
pIC50: −log10 of the molar value.
Each item that follows carries a reported pIC50.

COMPOUND | SYSTEM UNDER TEST | pIC50
C[C@H](CO)NC(=O)c1ccc2c(N3CCC(C(F)(F)F)CC3)nc(C(F)(F)F)cc2c1 [Compound I-52] | TEAD1 protein (YAP Binding Domain) (Homo sapiens) | > 6.82
COc1cc(-c2ccc(Oc3ccccc3)cc2)c2ncc(C(=O)N[C@H](C)CO)cc2c1 [Compound I-19] | TEAD1 protein (YAP Binding Domain) (Homo sapiens) | 6.52 to 6.82
C#Cc1ccc(-c2cccc3cc(C(=O)N[C@@H](C)c4ccccn4)cnc23)cc1 [I′-29] | TEAD1 protein (YAP Binding Domain) (Homo sapiens) | > 6.82
COc1cc(-c2ccc(C(C)(C)C)cc2)c2ncc(C(=O)N[C@H](C)CO)cc2c1 [I′-33] | TEAD1 protein (YAP Binding Domain) (Homo sapiens) | 6.52 to 6.82
COc1cc(N2CCC(C(F)(F)F)CC2)c2ncc(C(=O)N[C@@H](C)C(=O)O)cc2c1 [Compound I-41] | TEAD1 protein (YAP Binding Domain) (Homo sapiens) | 6.52 to 6.82
CC(CO)NC(=O)c1ccc2c(OCC3CCC(F)(F)CC3)cccc2c1 (stereo not shown) [Compound I-22] | TEAD1 protein (YAP Binding Domain) (Homo sapiens) | 6.52 to 6.82
COc1cc(N2CCC(C(F)(F)F)CC2)c2ncc(C(=O)NC(C)C)cc2c1 [Compound I-38] | TEAD1 protein (YAP Binding Domain) (Homo sapiens) | 6.52 to 6.82
COC[C@H](C)NC(=O)c1cnc2c(N3CCC(C(F)(F)F)CC3)cc(OC3CC3)cc2c1 [Compound I-26] | TEAD1 protein (YAP Binding Domain) (Homo sapiens) | 6.30 to 6.52
C[C@H](NC(=O)c1cnc2c(-c3ccc(C#N)cc3)cccc2c1)c1ccccn1 [I′-32] | TEAD1 protein (YAP Binding Domain) (Homo sapiens) | 6.30 to 6.52
COc1cc(-c2ccc(OC(C)(C)C)cc2)c2ncc(C(=O)N[C@H](C)CO)cc2c1 [Compound I-16] | TEAD1 protein (YAP Binding Domain) (Homo sapiens) | 6.52 to 6.82
COc1cc(N2CCC(C(F)(F)F)CC2)c2ncc(C(=O)N[C@@H](C)c3cccc(C(=O)O)c3)cc2c1 [Compound I-43] | TEAD1 protein (YAP Binding Domain) (Homo sapiens) | > 6.82
COc1cc(-c2ccc(OC(F)(F)F)cc2)c2ncc(C(=O)N[C@H](C)CO)cc2c1 [Compound I-15] | TEAD1 protein (YAP Binding Domain) (Homo sapiens) | > 6.82
C[C@H](CO)NC(=O)c1cnc2c(N3CCC4(CC3)CC4)cc(OC3CC3)cc2c1 [Compound I-25] | TEAD1 protein (YAP Binding Domain) (Homo sapiens) | < 6.30
COc1cc(N2CCC(C(F)(F)F)CC2)c2ncc(C(=O)N[C@@H](CO)C(C)C)cc2c1 [Compound I-35] | TEAD1 protein (YAP Binding Domain) (Homo sapiens) | 6.30 to 6.52
C[C@H](CO)NC(=O)c1ccc2c(N3CCC(C(F)(F)F)CC3)cccc2c1 [Compound I-59] | TEAD1 protein (YAP Binding Domain) (Homo sapiens) | 6.52 to 6.82
CC[C@@H](CO)NC(=O)c1cnc2c(N3CCC(C(F)(F)F)CC3)cc(OC)cc2c1 [Compound I-14] | TEAD1 protein (YAP Binding Domain) (Homo sapiens) | 6.52 to 6.82
